Consider the following compounds and their measured log10 DC50 readings.
Target: AR (Homo sapiens, UniProt P10275, T878A)
Sequence (P10275 1-920 T878A): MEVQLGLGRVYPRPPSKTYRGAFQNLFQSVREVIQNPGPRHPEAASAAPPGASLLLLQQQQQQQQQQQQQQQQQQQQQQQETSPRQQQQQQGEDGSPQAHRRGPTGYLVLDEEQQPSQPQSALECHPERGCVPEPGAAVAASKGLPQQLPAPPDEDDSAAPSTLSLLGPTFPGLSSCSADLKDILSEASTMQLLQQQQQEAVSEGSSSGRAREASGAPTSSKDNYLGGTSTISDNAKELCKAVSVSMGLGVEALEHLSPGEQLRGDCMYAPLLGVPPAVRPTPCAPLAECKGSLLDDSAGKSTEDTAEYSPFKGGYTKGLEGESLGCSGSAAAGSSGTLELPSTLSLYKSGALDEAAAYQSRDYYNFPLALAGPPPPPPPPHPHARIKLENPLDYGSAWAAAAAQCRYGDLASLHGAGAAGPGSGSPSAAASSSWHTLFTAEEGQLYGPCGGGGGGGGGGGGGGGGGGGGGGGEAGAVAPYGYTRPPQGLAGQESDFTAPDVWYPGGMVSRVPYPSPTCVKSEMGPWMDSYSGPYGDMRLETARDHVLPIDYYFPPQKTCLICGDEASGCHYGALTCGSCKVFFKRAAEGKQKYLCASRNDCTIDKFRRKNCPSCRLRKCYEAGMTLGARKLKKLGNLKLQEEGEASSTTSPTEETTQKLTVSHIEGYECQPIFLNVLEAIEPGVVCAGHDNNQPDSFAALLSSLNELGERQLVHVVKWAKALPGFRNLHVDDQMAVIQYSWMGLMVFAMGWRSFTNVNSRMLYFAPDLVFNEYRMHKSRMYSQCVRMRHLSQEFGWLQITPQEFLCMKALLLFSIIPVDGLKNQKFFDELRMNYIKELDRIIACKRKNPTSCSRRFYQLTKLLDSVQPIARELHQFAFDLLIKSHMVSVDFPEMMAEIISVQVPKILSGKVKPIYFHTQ
Test: Effects of compounds on AR expression in LNCaP cells (ELISA, DC50)
Type: cell-based
Set-up: Measurement of the Effects of Drugs on the Expression of AR in Cells by ELISA Method; endogenous in cells; host or cells: LNCaP
Settings: 24 hours of drug treatment, AR by ELISA
quantity measured: log10 DC50 (log10 of the value in nM)

compound="Cc1ncsc1-c1ccc([C@H](CC(=O)N2CCC(C#Cc3ccc(N4C(=S)N(c5ccc(C#N)c(C(F)(F)F)c5F)C(=O)C4(C)C)cc3)CC2)NC(=O)[C@@H]2C[C@@H](O)CN2C(=O)[C@@H](NC(=O)C2(F)CC2)C(C)(C)C)cc1 [Compound A133]" quantity_measured="log10 DC50" recorded_measurement=1.52
compound="Cc1ncsc1-c1ccc(CNC(=O)[C@@H]2C[C@@H](O)CN2C(=O)[C@@H](NC(=O)COCC(F)(F)CCOc2ccc(-c3ccc(N4C(=S)N(c5ccc(C#N)c(C(F)(F)F)c5F)C(=O)C4(C)C)cn3)cc2)C(C)(C)C)cc1 [Compound A175]" quantity_measured="log10 DC50" recorded_measurement=2.09
compound="Cc1ncsc1-c1ccc(CNC(=O)[C@@H]2C[C@@H](O)CN2C(=O)[C@@H](NC(=O)CCN2CCC(NC(=O)c3ccc(-c4ccc(N5C(=S)N(c6ccc(C#N)c(C(F)(F)F)c6F)C(=O)C5(C)C)cn4)cc3)C2)C(C)(C)C)cc1 (stereo partly shown) [Compound A56]" quantity_measured="log10 DC50" recorded_measurement=2.85
compound="Cc1ncsc1-c1ccc(CNC(=O)[C@@H]2C[C@@H](O)CN2C(=O)[C@@H](NC(=O)COCCCCOc2ccc(-c3ccc(N4C(=S)N(c5ccc(C#N)c(C(F)(F)F)c5F)C(=O)C4(C)C)cn3)cc2C(F)(F)F)C(C)(C)C)cc1 [Compound A84]" quantity_measured="log10 DC50" recorded_measurement=2.15
compound="CC(C)(C)[C@H](NC(=O)COCCCCOc1ccc(-c2ncc(N3C(=S)N(c4ccc(C#N)c(C(F)(F)F)c4F)C(=O)C3(C)C)cc2F)c(C(F)(F)F)c1)C(=O)N1C[C@H](O)C[C@H]1c1nc(-c2ccccc2)c[nH]1 [Compound A202]" quantity_measured="log10 DC50" recorded_measurement=2.82
compound="Cc1ncsc1-c1ccc([C@H](C)NC(=O)[C@@H]2C[C@@H](O)CN2C(=O)[C@@H](NC(=O)COCCCCOc2ccc(-c3ncc(N4C(=S)N(c5ccc(C#N)c(C(F)(F)F)c5F)C(=O)C4(C)C)cc3F)cc2F)C(C)(C)C)cc1 [Compound A110]" quantity_measured="log10 DC50" recorded_measurement=1.75
compound="Cc1ncsc1-c1ccc(CNC(=O)[C@@H]2C[C@@H](O)CN2C(=O)[C@@H](NC(=O)COCCOc2ccc(-c3ncc(N4C(=S)N(c5ccc(C#N)c(C(F)(F)F)c5F)C(=O)C4(C)C)cc3F)cc2F)C(C)(C)C)cc1 [Compound A91]" quantity_measured="log10 DC50" recorded_measurement=2.03
compound="COc1c(C#N)ccc(N2C(=O)C(C)(C)N(c3cnc(-c4ccc(OC5CCN(C(=O)COc6ccc7c(c6)C(=O)N(C6CCC(=O)NC6=O)C7=O)CC5)cc4F)c(F)c3)C2=S)c1F (stereo not shown) [Compound A194]" quantity_measured="log10 DC50" recorded_measurement=2.39
compound="Cc1ncsc1-c1ccc(CNC(=O)[C@@H]2C[C@@H](O)CN2C(=O)[C@@H](NC(=O)[C@H]2CC[C@H](CNC(=O)CCCc3ccc(N4C(=S)N(c5ccc(C#N)c(C(F)(F)F)c5F)C(=O)C4(C)C)cn3)CC2)C(C)(C)C)cc1 [Compound A140]" quantity_measured="log10 DC50" recorded_measurement=3.18
compound="Cc1ncsc1-c1ccc([C@H](C)NC(=O)[C@@H]2C[C@@H](O)CN2C(=O)[C@@H](NC(=O)COCCCCOc2ccc(-c3ncc(N4C(=S)N(c5ccc(C#N)c(C(F)(F)F)c5F)C(=O)C4(C)C)cc3F)c(C(F)(F)F)c2)C(C)(C)C)cc1 [Compound A109]" quantity_measured="log10 DC50" recorded_measurement=1.85
compound="Cc1ncsc1-c1ccc(CNC(=O)[C@@H]2C[C@@H](O)CN2C(=O)[C@@H](NC(=O)COCCCCOc2c(F)cc(-c3ccc(N4C(=S)N(c5ccc(C#N)c(C(F)(F)F)c5F)C(=O)C4(C)C)cn3)cc2F)C(C)(C)C)cc1 [Compound A103]" quantity_measured="log10 DC50" recorded_measurement=2.18
compound="Cc1ncsc1-c1ccc(CNC(=O)[C@@H]2C[C@@H](O)CN2C(=O)[C@@H](NC(=O)CCCn2cc(COc3ccc(-c4ccc(N5C(=S)N(c6ccc(C#N)c(C(F)(F)F)c6F)C(=O)C5(C)C)cn4)cc3)nn2)C(C)(C)C)cc1 [Compound A81]" quantity_measured="log10 DC50" recorded_measurement=1.80
compound="CC(C)(C)[C@H](NC(=O)COCCCCOc1ccc(-c2ncc(N3C(=S)N(c4ccc(C#N)c(C(F)(F)F)c4F)C(=O)C3(C)C)cc2F)cc1F)C(=O)N1C[C@H](O)C[C@H]1C(=O)NCc1ccc(C(N)=O)cc1 [Compound A119]" quantity_measured="log10 DC50" recorded_measurement=0.86
compound="CC1(C)C(=O)N(c2ccc(C#N)c(C(F)(F)F)c2F)C(=S)N1c1cnc(-c2ccc(OC3CCN(C(=O)COc4ccc5c(c4)C(=O)N(C4CCC(=O)NC4=O)C5=O)CC3)cc2C(F)(F)F)c(F)c1 (stereo not shown) [Compound A180]" quantity_measured="log10 DC50" recorded_measurement=2.92
compound="Cc1ncsc1-c1ccc(CNC(=O)[C@@H]2C[C@@H](O)CN2C(=O)[C@@H](NC(=O)COCCOCCOc2c(F)cc(-c3ncc(N4C(=S)N(c5ccc(C#N)c(C(F)(F)F)c5F)C(=O)C4(C)C)cc3F)cc2F)C(C)(C)C)cc1 [Compound A99]" quantity_measured="log10 DC50" recorded_measurement=1.37
compound="Cc1ncsc1-c1ccc(CNC(=O)[C@@H]2C[C@@H](O)CN2C(=O)[C@@H](NC(=O)COCCCCOc2ccc(-c3ccc(N4C(=S)N(c5ccc(C#N)c(C(F)(F)F)c5F)C(=O)C4(C)C)cn3)cc2C#N)C(C)(C)C)cc1 [Compound A57]" quantity_measured="log10 DC50" recorded_measurement=1.50

====

target: AR (Homo sapiens, UniProt P10275, T878A); assay: Effects of compounds on AR expression in LNCaP cells (ELISA, DC50); assay type: cell-based; set-up: Measurement of the Effects of Drugs on the Expression of AR in Cells by ELISA Method; endogenous in cells; host or cells: LNCaP; details: 24 hours of drug treatment, AR by ELISA
Consider the following compounds and their measured DC50 readings.
quantity measured: DC50 (nM)

compound=Cc1ncsc1-c1ccc(CNC(=O)[C@@H]2C[C@@H](O)CN2C(=O)[C@@H](NC(=O)COCCCCN2CC=C(c3ccc(N4C(=S)N(c5ccc(C#N)c(C(F)(F)F)c5F)C(=O)C4(C)C)cn3)CC2)C(C)(C)C)cc1 quantity_measured=DC50 uom=nM comparative_sign== recorded_measurement=1540
compound=Cc1ncsc1-c1ccc(CNC(=O)[C@@H]2C[C@@H](O)CN2C(=O)[C@@H](NC(=O)COc2ncc(N3C(=S)N(c4ccc(C#N)c(C(F)(F)F)c4F)C(=O)C3(C)C)cc2F)C(C)(C)C)cc1 quantity_measured=DC50 uom=nM comparative_sign== recorded_measurement=870
compound=Cc1ncsc1-c1ccc2[nH]c([C@@H]3C[C@@H](O)CN3C(=O)[C@@H](NC(=O)COCCCCOc3ccc(-c4ncc(N5C(=S)N(c6ccc(C#N)c(C(F)(F)F)c6F)C(=O)C5(C)C)cc4F)cc3F)C(C)(C)C)nc2c1 quantity_measured=DC50 uom=nM comparative_sign== recorded_measurement=1500
compound=CC(C)(C)[C@H](NC(=O)COCCCCOc1ccc(-c2ccc(N3C(=S)N(c4ccc(C#N)c(C(F)(F)F)c4F)C(=O)C3(C)C)cn2)cc1C(F)(F)F)C(=O)N1C[C@H](O)C[C@H]1C(=O)NCc1ccc(C(N)=O)cc1 quantity_measured=DC50 uom=nM comparative_sign== recorded_measurement=336
compound=Cc1ncsc1-c1ccc(CNC(=O)[C@@H]2C[C@@H](O)CN2C(=O)[C@@H](NC(=O)c2ccc(CNC(=O)CCCc3ccc(N4C(=S)N(c5ccc(C#N)c(C(F)(F)F)c5F)C(=O)C4(C)C)cn3)cc2)C(C)(C)C)cc1 quantity_measured=DC50 uom=nM comparative_sign== recorded_measurement=1130
compound=CC(C)(C)[C@H](NC(=O)COCCCCOc1ccc(-c2ncc(N3C(=S)N(c4ccc(C#N)c(C(F)(F)F)c4F)C(=O)C3(C)C)cc2F)c(C(F)(F)F)c1)C(=O)N1C[C@H](O)C[C@H]1C(=O)NCc1cnco1 quantity_measured=DC50 uom=nM comparative_sign== recorded_measurement=589
compound="COc1c(C#N)ccc(N2C(=O)C(C)(C)N(c3cnc(-c4ccc(OC5CCN(C(=O)COc6cccc7c6C(=O)N(C6CCC(=O)NC6=O)C7=O)CC5)cc4F)c(F)c3)C2=S)c1F (stereo not drawn)" quantity_measured=DC50 uom=nM comparative_sign== recorded_measurement=404
compound=Cc1ncsc1-c1ccc(CNC(=O)[C@@H]2C[C@@H](O)CN2C(=O)[C@@H](NC(=O)COCCOc2ccc(-c3ccc(N4C(=S)N(c5ccc(C#N)c(C(F)(F)F)c5F)C(=O)C4(C)C)cn3)cc2)C(C)(C)C)cc1 quantity_measured=DC50 uom=nM comparative_sign== recorded_measurement=62.1
compound=Cc1ncsc1-c1ccc(CNC(=O)[C@@H]2C[C@@H](O)CN2C(=O)[C@@H](NC(=O)COCCCCN2CCC(c3ccc(N4C(=S)N(c5ccc(C#N)c(C(F)(F)F)c5F)C(=O)C4(C)C)cn3)CC2)C(C)(C)C)cc1 quantity_measured=DC50 uom=nM comparative_sign=> recorded_measurement=2000

All values here come from patent US12606552B2.
